System: fall armyworm larvae (Spodoptera frugiperda)
Procedure Details: Spodoptera frugiperda spray test
Format: in vivo
Assay Setup: in Zea mays, 168 h
Readout Type: mortality at 100 g/ha (%)
Numeric answer only, unit % assumed.

# count of solved cases: 2
C[C@H](NC(=O)c1cc(CC#N)cc(OC(F)(F)F)c1)c1ncnn1-c1ncc(C#N)s1 [Example I-54]    100
COc1nc([C@H](C)NC(=O)c2cc(Cl)cc(C(C)(C)C#N)c2)n(-c2ccc(C#N)cn2)n1 [Example I-39]    100

Input line: For the molecule Cc1nc([C@H](C)NC(=O)c2cc(Cl)nc(C(C)(C)C#N)c2)n(-c2ncc(C#N)s2)n1 [Example I-70] , give its measured mortality at 100 g/ha value.
Output line: 100

Input line: Could you please provide reported mortality at 100 g/ha for C[C@H](NC(=O)c1cc(OC(F)(F)F)cc(C(C)(C)C#N)c1)c1ncnn1-c1cnc(C#N)cn1 [Example I-56] ? Thanks!
Output line: 100

Input line: Dear colleague, please send me the reported mortality at 100 g/ha for C[C@H](NC(=O)c1cc(Cl)cc(C(C)(C)C#N)c1)c1ncnn1-c1ncc(C#N)s1 [Example I-37] when you can.
Output line: 100

Input line: Name the recorded mortality at 100 g/ha of the item C[C@H](NC(=O)c1cc(Cl)nc(C(C)(C)C#N)c1)c1ncnn1-c1cc(C#N)ncn1 [Example I-75] in your answer.
Output line: 100

Input line: Retrieve mortality at 100 g/ha measured for C[C@H](NC(=O)c1cc(Cl)cc(C(=O)C2CC2)c1)c1ncnn1-c1cc(C#N)ncn1 [Example I-81] and print it.
Output line: 100
